- Experimental System: T1, recombinant biotinylated human PD-1 (human, UniProt Q15116 25-170, limits assumed, biotinylated (site not stated))
- T1 construct: also called rhPD-1; recombinant human PD-1 protein
- T1 sequence (Q15116 25-170 limits assumed): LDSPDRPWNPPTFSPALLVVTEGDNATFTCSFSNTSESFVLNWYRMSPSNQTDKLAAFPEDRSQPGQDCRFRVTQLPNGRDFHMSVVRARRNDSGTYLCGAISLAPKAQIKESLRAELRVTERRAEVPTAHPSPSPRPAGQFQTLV
- Method Notes: ELISA, antibody coated, biotinylated rhPD-1 titrated, Sav-HRP detection
Quantity Kind: pKd
Numbers only, as −log10 of the molar value.

Example entries and their recorded answers appear below.
[[record]]
binder = "Ab7 anti-PD-1 antibody (antibody, V domains shown, Humanized antibody, detected with anti-human IgG Fc) VH: QVQLQQSGAEVKKPGSSVKVSCRASGYTFTNYYLYWVRQAPGQGLEWIGGINPSNGGTNFNEKFRGRVTITADESSTTAYMELSSLRSEDTAFYFCTRRDYNYDGGFDYWGQGTTVTVSS VL: DIVMTQSPSSLSASVGDRVTITCRASKSVSTSGFNYMHWYQQTPGKAPKLLIYLASNLDSGVPARFSGSGSGTDFTFTISSLQEEDIATYYCFHGRELPLTFGQGTKLQITR"
test_value = 9.17

[[record]]
binder = "Ab8 anti-PD-1 antibody (antibody, V domains shown, Humanized antibody, detected with anti-human IgG Fc) VH: EVQLQESGAEVKKPGSSVKVSCKASGYTFTNYYLYWVRQAPGQGLEWMGGINPSNGGTNFNEKFRGRVTITADESTSTAYMELSSLRSEDTAVYYCARRDYNYDGGFDYWGQGTTVTVSS VL: DIVMTQSPDSLAVSLGERATINCRASKSVSTSGFNYMHWYQQKPGQPPKLLIYLASNLDSGVPDRFSGSGSGTDFTLTIRPLQAEDVAVYYCQHGRELPLTFGQGTKLEIK"
test_value = 9.49

[[record]]
binder = "F02 anti-PD-1 antibody (antibody, V domains shown, Mouse monoclonal antibody from hybridoma clone #11, detected with anti-mouse IgG F(ab')2; Only the variable domains are tied to F02; also called anti-PD-1 antibody from hybridoma clone #11; clone #11) VH: QQPGAELVKPGASVKLSCRASGYTFTNYYLYWVKQRPGQGLEWIGGINPSNGGTNFNEKFRGKATLTVDKSSSTAYMQLSSLTSEDSAVYFCTRRDYNYDGGFDYWGQGSTLTVSS VL: DIVLTQSPASLAVSLGQRATISCRASKSVSTSGFNYMHWYQQKPGQPPKLLIYLASNLDSGVPARFSGSGSGTDFTLNIHPVEEEDAATYYCQHGRELPLTFGAGTKLELRR"
test_value = 9.85


Field: next binder
IN: For the binder h11 anti-PD-1 antibody (antibody, V domains shown, Humanized antibody derived from F02, detected with anti-human IgG Fc; also called hl 1) VH: QVQLVQSGAEVKKPGASVKVSCKASGYTFTNYYMYWVRQAPGQGLEWIGGINPSNGGTNFNEKFKNKATMTVDKSTSTAYMELSSLRSEDTAVYYCTRRDYNYDGGFDYWGQGTLVTVSS VL: DIVLTQSPATLSLSPGERATLSCRASKSVSTSGFNYMHWYQQKPGQAPRLLIFLASNLASGVPARFSGSGSGTDFTLTISSLEPEDFAVYYCQHGRELPLTFGQGTKLEI , what pKd is on record?
OUT: 9.54
